The reported numbers originate from ChEMBL document CHEMBL3352605.

# Species on record: Rattus norvegicus
# assaySummary: Selectivity ratio of Ki for rat forebrain alpha3beta4 nAChR to rat forebrain alpha4beta2 nAChR
So I've got a bunch of molecules here, and I need their Ratio Ki values.
Just the number.

IN: Entry under review: `OCCCCC#Cc1cncc(OC[C@@H]2CCN2)c1` . Reported Ratio Ki?
OUT: 24000

IN: Entry under review: `COCC[C@H]1C[C@@H]1c1cncc(N2C[C@H]3CN(C)C[C@H]3C2)c1` . Reported Ratio Ki?
OUT: 40

---

# assaySummary: Ratio of drug level in brain to plasma of CD-1 mouse at 10 mg/kg, ip measured at 30 mins post dose
# Type: ADME, organism-based
# Parameters: dose 10 mg/kg, route intraperitoneal
# testParameters: read-out: BPR
propertyName: Kp at 0.5 h
Just the number.

IN: Entry under review: `FCC[C@H]1C[C@@H]1c1cncc(N2C[C@H]3CNC[C@H]3C2)c1.O=C(O)C(F)(F)F` . Reported Kp at 0.5 h?
OUT: 0.24
